Listing of recorded responders at 3 µM by entry.
# System: renal progenitor cells
# Assay Summary: In situ hybridization for lhx1a expression in 10-somite embryos (renal progenitor cell expansion)
# Assay type: in vivo
# Test Context: Danio rerio, 3 μM from 2 hpf, 10-somite embryos; read-out: lhx1a expansion, percent of treated embryos
Property: responders at 3 µM (%)

Molecule	Property	Value
CCCC(CCC)C(=O)O [valproic acid, reference compound]	responders at 3 µM	20
O=C(O)CCCSc1ccccc1 [UPHD-00020, 4-(phenylthio)butanoic acid (PTBA)]	responders at 3 µM	95
COC(=O)CCCSc1ccccc1 [UPHD-00025]	responders at 3 µM	100
O=C(O)CCCOc1ccccc1 [4-phenoxybutanoic acid, reference compound]	responders at 3 µM	13
O=C(CCCCCN1C(=O)c2cccc3cccc(c23)C1=O)NO [Scriptaid, reference compound]	responders at 3 µM	39
COC(=O)CCCSc1ccc(Br)cc1 [VNK-I-290]	responders at 3 µM	74
O=C(O)CCCSc1ccc2ccccc2c1 [4-(naphthalen-2-ylthio)butanoic acid, 4-(Naphthalen-2-ylthio)butanoic acid, reference compound]	responders at 3 µM	33
CC(C)(C)OC(=O)CCCSc1ccccc1 [tert-butyl 4-(phenylthio)butanoate]	responders at 3 µM	25
COc1ccc(SCCCC(=O)NO)cc1 [VNK-I-289]	responders at 3 µM	31
